System: C. albicans cgmcc 2.2086
measurement_description: microbe, parasite or virus in culture
Type: cell-based, Candida albicans
reported_conditions: cgmcc 2.2086, 48 h; read-out: MICs, C. albicans cgmcc 2.2086
No end group written: not given here.
property: MIC (µM)
Reply numerically in µM, unit not repeated.

// solved cases for MIC follow
| substance | property | uom | test_value |
| --- | --- | --- | --- |
| RRLALWLALRR-NH2 [Peptide P1] | MIC | µM | 8 |
| RRFSFWFSFRR-NH2 [Peptide P19] | MIC | µM | 2 |
| RRISIWISIRR-NH2 [Peptide P17] | MIC | µM | 4 |

Next item in the queue.
What value of MIC has been recorded for this entry: RRLSLWLSLRR-NH2 [Peptide P2]
4
